testTarget: SUDV GPddmuc (Sudan virus (SUDV), UniProt Q66814 33-650)
assayInfo: ELISA
Listing: pEC50 of selected binders
The quantity pEC50 is defined as the negative base-10 logarithm of the molar concentration.

Please review the following examples before continuing.
[[record]]
binder = "FVM25 (antibody, V domains shown) VH: EVQLVHSGAEVKRPGESLTISCKTSGYTFTDYWIAWVRQMPGKGLEWMASIYPDDSDTRYNPSFQGHVTISADKSISTTYLQWSSLRASDTATYYCVKGSETWGQGVLVTVSS VL: QLVLTQPASLSASPGTSASLTCTFSGGINVAGYNILWYQQKPGSPPRFLLRYKSDSDNVQGSGVPSHFSGSKDASTNTGILRISGLQSEDEADYYCAIGHSSGWVFGGGTRLTVL"
readoutkind = "pEC50"
experimentalresult = 9.74

[[record]]
binder = "FVM19 (antibody, V domains shown) VH: QVQLVQSGAEVKRPGESLTISCKTSGYSFTDSWVAWVRQMPGKGLEWLGSIYPGDSDTKYNPSFQGHVTISADKSVTTTYLKWSSLKASDTATYYCVKGSETWGQGVLVTVSS VL: KPMLTQPASLSASPGASASLTCTFSGGINVAGYHIFWYQQKPGSPPRYLLRYKSDSDKGQGSGVPSRFSGSKDASANTGILRISGLQSEDEADYYCAIGHSSGLLFGGGTRLTVL"
readoutkind = "pEC50"
experimentalresult = 9.57

[[record]]
binder = "FVM26 (antibody, V domains shown) VH: QVQLVQSGAEVKRPGESLRISCKTSGYTFTDYWIAWVRQMPGKGLEWMGSIYPGDSETKYNPSFQGHVTISADKSVTTTYLKWSRLKASDTATYYCVKGSETWGQGVLVTVSS VL: QPVLTQPASLSASPGASASLTCTFSGGINVAGYNILWYQQKAGSPPRYLLRYKSDSTKDQGSGVPSRFSGSKDASANTGILRISGLQSEDEADYYCAIGHSSGWIFGGGTRLTVL"
readoutkind = "pEC50"
experimentalresult = 10.10


Task: # input binder: FVM33 (antibody, V domains shown) VH: QVQLVQSGAEVKRPGESLKISCKTSRYSFTSSWIGWVRQMPGKGLEWLGSIYPGDSDTRYNPSFQGHVTISADKSVTTTYLKWSSLKASDTATYYCVKGSETWGQGVLVTVSS VL: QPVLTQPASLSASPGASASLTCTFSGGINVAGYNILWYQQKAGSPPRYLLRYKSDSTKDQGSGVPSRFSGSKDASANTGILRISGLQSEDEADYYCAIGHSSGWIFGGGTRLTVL ; wanted: its pEC50
Result: 10.40

Task: Entry FVM40 (antibody, V domains shown) VH: EVQLVQSGAEVKRPGESLTISCKTSGYSFTDSWISWVRQMPGKGLEWMGSIYPGDSETKYNPSFQGHVTISADKSVTTTYLKWSSLKASDTATYYCVKGSETWGQGVLVTVSS VL: QPMLTQPASLSASPGASASLTCTFSGGINVAGYNILWYQQKAGSPPRYLLRYKSDSTKDQGSGVPSRFSGSKDASANTGILRISGLQSEDEADYYCAIGHSSGWIFGGGTRLTVL has what pEC50?
Result: 10.48
